- Tested on: 855422-203-R-J1-PDC spheroids with HUVEC/MSC, viability
- assay-overview: Anticancer human tumor 855422-203-R-J1-PDC patient-derived bladder carcinoma cell line growth inhibition [PI3K]
- conditions: second compound 10 µM; first compound 0.1 µM; active compounds read low
quantity-name: viability, T/C (%)

{"molecule": "CC(=O)c1c(C)c2cnc(Nc3ccc(N4CCNCC4)cn3)nc2n(C2CCCC2)c1=O + Cc1nc(NC(=O)N2CCCC2C(N)=O)sc1-c1ccnc(C(C)(C)C(F)(F)F)c1", "quantity-name": "viability, T/C", "recorded-number": 10.7}
{"molecule": "Cn1nccc1Nc1nccc(-c2ccn(C(CO)c3ccc(Cl)c(F)c3)c(=O)c2)n1 (stereo unspecified) + Cc1nc(NC(=O)N2CCCC2C(N)=O)sc1-c1ccnc(C(C)(C)C(F)(F)F)c1", "quantity-name": "viability, T/C", "recorded-number": 21.6}
{"molecule": "CC(Cn1ccc(-c2ccc(C#N)c(Cl)c2)n1)NC(=O)c1cc(C(C)O)[nH]n1 (stereo unspecified) + Cc1nc(NC(=O)N2CCCC2C(N)=O)sc1-c1ccnc(C(C)(C)C(F)(F)F)c1", "quantity-name": "viability, T/C", "recorded-number": 22.5}
{"molecule": "Cn1nccc1Nc1nccc(-c2ccn(C(CO)c3ccc(Cl)c(F)c3)c(=O)c2)n1 (stereo unspecified) + CC(Nc1ncnc2nc[nH]c12)c1cc2cccc(Cl)c2c(=O)n1-c1ccccc1", "quantity-name": "viability, T/C", "recorded-number": 81.3}
{"molecule": "CCCS(=O)(=O)Nc1ccc(F)c(C(=O)c2c[nH]c3ncc(-c4ccc(Cl)cc4)cc23)c1F + Cc1nc(NC(=O)N2CCCC2C(N)=O)sc1-c1ccnc(C(C)(C)C(F)(F)F)c1", "quantity-name": "viability, T/C", "recorded-number": 17.9}
{"molecule": "Cn1ncc(Cl)c1-c1cc(C(=O)NC(CN)Cc2cccc(F)c2)sc1Cl (stereo unspecified) + Cc1nc(NC(=O)N2CCCC2C(N)=O)sc1-c1ccnc(C(C)(C)C(F)(F)F)c1", "quantity-name": "viability, T/C", "recorded-number": 23.4}
{"molecule": "CC1(C)CCC(Nc2ncc(C(F)(F)F)c(-c3c[nH]c4c(P(C)(C)=O)c(C#N)ccc34)n2)CN1 (stereo unspecified) + CC(Nc1ncnc2nc[nH]c12)c1cc2cccc(Cl)c2c(=O)n1-c1ccccc1", "quantity-name": "viability, T/C", "recorded-number": 21.4}
{"molecule": "CNC(=O)c1ccc(N2C(=S)N(c3ccc(C#N)c(C(F)(F)F)c3)C(=O)C2(C)C)cc1F + CC(Nc1ncnc2nc[nH]c12)c1cc2cccc(Cl)c2c(=O)n1-c1ccccc1", "quantity-name": "viability, T/C", "recorded-number": 80.9}
{"molecule": "CC1(C)CCC(CN2CCN(c3ccc(C(=O)NS(=O)(=O)c4ccc(NCC5CCOCC5)c([N+](=O)[O-])c4)c(Oc4cnc5[nH]ccc5c4)c3)CC2)=C(c2ccc(Cl)cc2)C1 + CC(Nc1ncnc2nc[nH]c12)c1cc2cccc(Cl)c2c(=O)n1-c1ccccc1", "quantity-name": "viability, T/C", "recorded-number": 79.9}
{"molecule": "CC(C)n1nc(-c2ccc3oc(N)nc3c2)c2c(N)ncnc21 + CC(Nc1ncnc2nc[nH]c12)c1cc2cccc(Cl)c2c(=O)n1-c1ccccc1", "quantity-name": "viability, T/C", "recorded-number": 13.6}
{"molecule": "C=CC(=O)N1CCN(c2nc(=O)n(-c3c(C)ccnc3C(C)C)c3nc(-c4c(O)cccc4F)c(F)cc23)C(C)C1 (stereo unspecified) + CC(Nc1ncnc2nc[nH]c12)c1cc2cccc(Cl)c2c(=O)n1-c1ccccc1", "quantity-name": "viability, T/C", "recorded-number": 90.4}

---

- Test system: 855422-203-R-J1-PDC spheroids with HUVEC/MSC, viability
- assay-overview: Anticancer human tumor 855422-203-R-J1-PDC cell line growth inhibition [PI3K];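 further: agents incubated with spheroids for one week before read-out; 100% = DMSO vehicle-treated control wells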
- conditions: second compound 3.16 µM; first compound 0.001 µM; active compounds read low

{"compound": "CC(C)n1nc(-c2ccc3oc(N)nc3c2)c2c(N)ncnc21 + CC(Nc1ncnc2nc[nH]c12)c1cc2cccc(Cl)c2c(=O)n1-c1ccccc1", "viability, T/C / %": 91}
{"compound": "Cn1ncnc1[C@H]1c2n[nH]c(=O)c3cc(F)cc(c23)N[C@@H]1c1ccc(F)cc1 + Cc1nc(NC(=O)N2CCCC2C(N)=O)sc1-c1ccnc(C(C)(C)C(F)(F)F)c1", "viability, T/C / %": 49.8}
{"compound": "Cn1ncnc1[C@H]1c2n[nH]c(=O)c3cc(F)cc(c23)N[C@@H]1c1ccc(F)cc1 + CC(Nc1ncnc2nc[nH]c12)c1cc2cccc(Cl)c2c(=O)n1-c1ccccc1", "viability, T/C / %": 92}

---

- Tested on: 855422-203-R-J1-PDC spheroids with HUVEC/MSC, viability
- assay-overview: Anticancer human tumor 855422-203-R-J1-PDC cell line growth inhibition [PI3K];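 further: agents incubated with spheroids for one week before read-out; 100% = DMSO vehicle-treated control wells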
- conditions: second compound 3.16 µM; first compound 1 µM; active compounds read low
Each item that follows carries a reported viability, T/C.
quantity-name: viability, T/C (%)

{"molecule": "CC1(C)CCC(Nc2ncc(C(F)(F)F)c(-c3c[nH]c4c(P(C)(C)=O)c(C#N)ccc34)n2)CN1 (stereo not given) + CC(Nc1ncnc2nc[nH]c12)c1cc2cccc(Cl)c2c(=O)n1-c1ccccc1", "tested-target": "855422-203-R-J1-PDC spheroids with HUVEC/MSC, viability", "value-units": "%", "recorded-number": 23.9}
{"molecule": "CC(C)NCC(C(=O)N1CCN(c2ncnc3c2C(C)CC3O)CC1)c1ccc(Cl)cc1 (stereo not given) + CC(Nc1ncnc2nc[nH]c12)c1cc2cccc(Cl)c2c(=O)n1-c1ccccc1", "tested-target": "855422-203-R-J1-PDC spheroids with HUVEC/MSC, viability", "value-units": "%", "recorded-number": 47.6}
{"molecule": "CC1(C)CCC(Nc2ncc(C(F)(F)F)c(-c3c[nH]c4c(P(C)(C)=O)c(C#N)ccc34)n2)CN1 (stereo not given) + Cc1nc(NC(=O)N2CCCC2C(N)=O)sc1-c1ccnc(C(C)(C)C(F)(F)F)c1", "tested-target": "855422-203-R-J1-PDC spheroids with HUVEC/MSC, viability", "value-units": "%", "recorded-number": 12.9}
{"molecule": "C#Cc1c(F)ccc2cc(O)cc(-c3ncc4c(N5CC6CCC(C5)N6)nc(OCC56CCCN5CC(F)C6)nc4c3F)c12 (stereo not given) + Cc1nc(NC(=O)N2CCCC2C(N)=O)sc1-c1ccnc(C(C)(C)C(F)(F)F)c1", "tested-target": "855422-203-R-J1-PDC spheroids with HUVEC/MSC, viability", "value-units": "%", "recorded-number": 42.9}
{"molecule": "CC1(C)CCC(CN2CCN(c3ccc(C(=O)NS(=O)(=O)c4ccc(NCC5CCOCC5)c([N+](=O)[O-])c4)c(Oc4cnc5[nH]ccc5c4)c3)CC2)=C(c2ccc(Cl)cc2)C1 + Cc1nc(NC(=O)N2CCCC2C(N)=O)sc1-c1ccnc(C(C)(C)C(F)(F)F)c1", "tested-target": "855422-203-R-J1-PDC spheroids with HUVEC/MSC, viability", "value-units": "%", "recorded-number": 49}

---

- System: 855422-203-R-J1-PDC spheroids with HUVEC/MSC, viability
- assay-overview: Anticancer human tumor 855422-203-R-J1-PDC cell line growth inhibition [PI3K];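 further: agents incubated with spheroids for one week before read-out; 100% = DMSO vehicle-treated control wells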
- conditions: second compound 3.16 µM; first compound 1 µM; active compounds read low

{"compound": "CNC(=O)c1ccc(N2C(=S)N(c3ccc(C#N)c(C(F)(F)F)c3)C(=O)C2(C)C)cc1F + Cc1nc(NC(=O)N2CCCC2C(N)=O)sc1-c1ccnc(C(C)(C)C(F)(F)F)c1", "tested-target": "855422-203-R-J1-PDC spheroids with HUVEC/MSC, viability", "viability, T/C / %": 51.5}
{"compound": "CCN1CCN(Cc2ccc(Nc3ncc(F)c(-c4cc(F)c5nc(C)n(C(C)C)c5c4)n3)nc2)CC1 + CC(Nc1ncnc2nc[nH]c12)c1cc2cccc(Cl)c2c(=O)n1-c1ccccc1", "tested-target": "855422-203-R-J1-PDC spheroids with HUVEC/MSC, viability", "viability, T/C / %": 46.2}
{"compound": "C#Cc1c(F)ccc2cc(O)cc(-c3ncc4c(N5CC6CCC(C5)N6)nc(OCC56CCCN5CC(F)C6)nc4c3F)c12 (stereo not drawn) + CC(Nc1ncnc2nc[nH]c12)c1cc2cccc(Cl)c2c(=O)n1-c1ccccc1", "tested-target": "855422-203-R-J1-PDC spheroids with HUVEC/MSC, viability", "viability, T/C / %": 93.7}

---

- System: 855422-203-R-J1-PDC spheroids with HUVEC/MSC, viability
- assay-overview: Anticancer human tumor 855422-203-R-J1-PDC cell line growth inhibition [PI3K];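 further: agents incubated with spheroids for one week before read-out; 100% = DMSO vehicle-treated control wells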
- conditions: second compound 0.316 µM; first compound 10 µM; active compounds read low
quantity-name: viability, T/C (%)

{"compound": "CC(Cn1ccc(-c2ccc(C#N)c(Cl)c2)n1)NC(=O)c1cc(C(C)O)[nH]n1 (stereo not drawn) + Cc1nc(NC(=O)N2CCCC2C(N)=O)sc1-c1ccnc(C(C)(C)C(F)(F)F)c1", "tested-target": "855422-203-R-J1-PDC spheroids with HUVEC/MSC, viability", "quantity-name": "viability, T/C", "value-units": "%", "recorded-number": 86.7}
{"compound": "Cn1nccc1Nc1nccc(-c2ccn(C(CO)c3ccc(Cl)c(F)c3)c(=O)c2)n1 (stereo not drawn) + CC(Nc1ncnc2nc[nH]c12)c1cc2cccc(Cl)c2c(=O)n1-c1ccccc1", "tested-target": "855422-203-R-J1-PDC spheroids with HUVEC/MSC, viability", "quantity-name": "viability, T/C", "value-units": "%", "recorded-number": 43.5}
{"compound": "CNC(=O)c1ccc(N2C(=S)N(c3ccc(C#N)c(C(F)(F)F)c3)C(=O)C2(C)C)cc1F + Cc1nc(NC(=O)N2CCCC2C(N)=O)sc1-c1ccnc(C(C)(C)C(F)(F)F)c1", "tested-target": "855422-203-R-J1-PDC spheroids with HUVEC/MSC, viability", "quantity-name": "viability, T/C", "value-units": "%", "recorded-number": 77.4}
